Assay: CCTE_Simmons_MITO_basal_resp_rate: CCTE's HepG2 Seahorse XF Respirometric Screening Assay at Basal Respiratory State, Simmons Lab (AID 2284001)
Settings: actives raise or lower the signal
Calls of active or inactive are those of the source. Rule for the calls: active = hit-call score of the fitted dose curve at least 0.9, where 1 is the maximum; inactive = score below 0.9.
Choose the fitting class; nothing outside active, inactive is accepted.

Asked: Identify the outcome logged in this assay for the molecule shown: Cc1cccc(Nc2cc(Cl)nc(SCC(=O)O)n2)c1C
Given back: inactive

Asked: Identify the outcome logged in this assay for the molecule shown: C=CCOC(=O)c1ccccc1C(=O)OCC=C
Given back: active

Asked: Identify the outcome logged in this assay for the molecule shown: CCCCC(CC)COC(=O)CC(C(=O)OCC(CC)CCCC)S(=O)(=O)O (centres undefined)
Given back: inactive

Moving on to the next molecule.
Asked: Identify the outcome logged in this assay for the molecule shown: Cc1oc(-c2ccccc2)nc1CCOc1cccc2c1ccn2CCC(=O)O
Given back: active

###

Read-out: Interleukin-8 (IL8), CXCL8 (gene 3576)
Assay: BSK_hDFCGF_IL8: BioMAP Diversity Plus: hDFCGF Assay for Interleukin-8 (IL8) Biomarker Activity (AID 2283058)
Settings: primary human foreskin fibroblasts; actives raise or lower the signal
Active and inactive are the calls of the source. How the source made its calls: active means hit-call score of the fitted dose curve at least 0.9, where 1 is the maximum; inactive means score below 0.9.
Choose the fitting class; nothing outside active, inactive is accepted.

Worked cases, answers included:
Asked: Identify the outcome logged in this assay for the compound shown: COCCOCCOC
Given back: inactive

Asked: Identify the outcome logged in this assay for the compound shown: C[C@]12C=CC(=O)C=C1CC[C@@H]1[C@@H]2C(=O)C[C@@]2(C)[C@H]1CC[C@]2(O)C(=O)CO
Given back: inactive

Asked: Identify the outcome logged in this assay for the compound shown: C=CCOC(=O)c1ccccc1C(=O)OCC=C
Given back: inactive

Asked: Identify the outcome logged in this assay for the compound shown: OC[C@@H](O)[C@@H](O)[C@H](O)[C@H](O)CO
Given back: inactive

Asked: Identify the outcome logged in this assay for the compound shown: COc1ccc2c(c1)c(CC(=O)O)c(C)n2C(=O)c1ccc(Cl)cc1
Given back: inactive

Asked: Identify the outcome logged in this assay for the compound shown: Cc1cc(=O)[nH]c(=S)[nH]1
Given back: inactive

New cases:
Asked: Identify the outcome logged in this assay for the compound shown: CC1(C)CC(N=C=O)CC(C)(CN=C=O)C1 (stereo not drawn)
Given back: inactive

Asked: Identify the outcome logged in this assay for the compound shown: O=C(O)Cc1ccccc1Nc1c(Cl)cccc1Cl
Given back: inactive

Asked: Identify the outcome logged in this assay for the compound shown: Cc1nc(C)nc(N2C[C@@H](C)N(c3ccnc([C@@H](C)O)n3)[C@@H](C)C2)n1
Given back: inactive

Asked: Identify the outcome logged in this assay for the compound shown: Oc1ccc2c(c1)OC[C@@H](N1CCC(O)(c3ccc(F)cc3)CC1)[C@H]2O
Given back: inactive

###

Read-out: Potassium channel subfamily K member 1 (KCNK1), KCNK1 (gene 3775)
Assay: LTEA_HepaRG_KCNK1: Life Technologies and Expression Analysis (LTEA) Assay for Potassium channel subfamily K member 1 (KCNK1) using HepaRG (AID 2283511)
Conditions: mRNA level, 48 h; actives raise or lower the signal
The source made the active and inactive calls. The calls were made as follows: active = hit-call score of the fitted dose curve at least 0.9, where 1 is the maximum; inactive = score below 0.9.
Choose the fitting class; nothing outside t for active, f for inactive is accepted.

Asked: Identify the outcome logged in this assay for the compound shown: CC1(C)NC(=O)NC1=O
Given back: f

Asked: Identify the outcome logged in this assay for the compound shown: Cc1nc(C)nc(N2C[C@@H](C)N(c3ccnc([C@@H](C)O)n3)[C@@H](C)C2)n1
Given back: f

Asked: Identify the outcome logged in this assay for the compound shown: Cc1cc(NC(=O)C(=O)O)cc(C)c1Oc1ccc(O)c2c1CCC2
Given back: f

Asked: Identify the outcome logged in this assay for the compound shown: CC1=C(/C=C/C(C)=C/C=C/C(C)=C/CO)C(C)(C)CCC1
Given back: f

Asked: Identify the outcome logged in this assay for the compound shown: COCCOCCOC
Given back: f

New cases:
Asked: Identify the outcome logged in this assay for the compound shown: CC(C)(C)c1cc(O)c(C(C)(C)C)cc1O
Given back: f

Asked: Identify the outcome logged in this assay for the compound shown: Cc1cccc([N+](=O)[O-])c1C
Given back: f

Asked: Identify the outcome logged in this assay for the compound shown: Cc1cccc(Nc2cc(Cl)nc(SCC(=O)O)n2)c1C
Given back: f

Asked: Identify the outcome logged in this assay for the compound shown: Nc1ccccc1N
Given back: f

Asked: Identify the outcome logged in this assay for the compound shown: O=C(O)CCCCC(=O)O
Given back: f
